meta.source: paper PMC8970883

experimentSummary: Pharmacokinetic study in rats after intragastric administration of Farfarae Flos extract (plasma, LC-MS/MS)
Format: in vivo
particulars: male, rat, plasma, po, 3.9 g/kg, oral Farfarae Flos extract 3.9 g·kg^−1, mean ± SD
The following compounds are shown together with reported Cmax values.

[
  {
    "lineNotation": "O=C(/C=C/c1ccc(O)c(O)c1)O[C@H]1[C@H](O)C[C@](O)(C(=O)O)C[C@H]1O",
    "Cmax, ng/mL": 177
  },
  {
    "lineNotation": "O=C(/C=C/c1ccc(O)c(O)c1)O[C@@H]1C[C@](O)(C(=O)O)C[C@@H](O)[C@H]1O",
    "Cmax, ng/mL": 538
  },
  {
    "lineNotation": "C[C@@H]1O[C@@H](OC[C@H]2O[C@@H](Oc3c(-c4ccc(O)c(O)c4)oc4cc(O)cc(O)c4c3=O)[C@H](O)[C@@H](O)[C@@H]2O)[C@H](O)[C@H](O)[C@H]1O",
    "Cmax, ng/mL": 17.9
  },
  {
    "lineNotation": "C=C1[C@H](OC(=O)/C=C(\\C)CC)C[C@@H](C(C)C)[C@@H]2[C@@H]([C@@H](C)OC(C)=O)C(=O)C[C@@H]12",
    "Cmax, ng/mL": 0.83
  }
]
